Hello, the source for this data is the supplement of paper PMC8882468, in case you need it.

Measured CTG-3D luminescence at 96 h values are reported for all entries that follow.
tested on: HCI-011.E2 (organoid from an ER-positive breast cancer xenograft); experiment: CTG-3D luminescence at 96 h relative to day-0 seeding control (ratio to day 0); higher = more growth / less cytotoxicity; PDxO 3D drug screen (set 2), 96 h, CTG-3D normalised to day-0 seeding control.; conditions: 0.005 µM; days in culture: 74
outcome measure: CTG-3D luminescence at 96 h

INSERT INTO results (chemical_smiles, target_or_test_system, outcome_measure, endpoint_value) VALUES
  ('Nc1cc(C(F)(F)F)c(-c2cc(N3CCOCC3)nc(N3CCOCC3)n2)cn1', 'HCI-011.E2', 'CTG-3D luminescence at 96 h', 1.83),
  ('O=C(c1cc(Cc2n[nH]c(=O)c3ccccc23)ccc1F)N1CCN(C(=O)C2CC2)CC1', 'HCI-011.E2', 'CTG-3D luminescence at 96 h', 2.19),
  ('CO[C@H]1C[C@@H]2CC[C@@H](C)[C@@](O)(O2)C(=O)C(=O)N2CCCC[C@H]2C(=O)O[C@H]([C@H](C)C[C@@H]2CC[C@@H](O)[C@H](OC)C2)CC(=O)[C@H](C)/C=C(\C)[C@@H](O)[C@@H](OC)C(=O)[C@H](C)C[C@H](C)/C=C/C=C/C=C/1C', 'HCI-011.E2', 'CTG-3D luminescence at 96 h', 1.16),
  ('Cc1c(CN2CCN(C(=O)[C@H](C)O)CC2)sc2c(N3CCOCC3)nc(-c3cnc(N)nc3)nc12', 'HCI-011.E2', 'CTG-3D luminescence at 96 h', 1.85);

====

system: HCI-027 (organoid from a triple-negative breast cancer xenograft); test: CTG-3D luminescence at 96 h relative to day-0 seeding control (ratio to day 0); higher = more growth / less cytotoxicity; PDxO 3D drug screen, 96 h, CTG-3D normalised to day-0 seeding control.; settings: 12.5 pM; days in culture: 176
outcome measure: CTG-3D luminescence at 96 h

INSERT INTO measurements (molecule, target_or_test_system, endpoint_value) VALUES
  ('Cc1cc(Nc2ncc(Cl)c(Nc3ccccc3S(=O)(=O)C(C)C)n2)c(OC(C)C)cc1C1CCNCC1', 'HCI-027', 2.26),
  ('C[C@H](NC(=O)CCC(F)(F)F)C(=O)N[C@@H]1C(=O)N(CCO)c2ncccc2-c2ccccc21', 'HCI-027', 1.81),
  ('C=CC(=O)N1CCC[C@@H](n2nc(-c3ccc(Oc4ccccc4)cc3)c3c(N)ncnc32)C1', 'HCI-027', 1.63),
  ('CCN1CCN(Cc2ccc(Nc3ncc(F)c(-c4cc(F)c5nc(C)n(C(C)C)c5c4)n3)nc2)CC1', 'HCI-027', 2.08),
  ('CNC(=O)c1cccc(-c2ccc3c(N4CCOC[C@@H]4C)nc(N4CCOC[C@@H]4C)nc3n2)c1', 'HCI-027', 2.07),
  ('NC(=O)Nc1cc(-c2cccc(F)c2)sc1C(=O)N[C@H]1CCCNC1', 'HCI-027', 1.95),
  ('CC[C@H](NC(=O)[C@H](C)NC)C(=O)N1C[C@@H](O)C[C@H]1Cc1c(-c2[nH]c3cc(F)ccc3c2C[C@@H]2C[C@H](O)CN2C(=O)[C@H](CC)NC(=O)[C@H](C)NC)[nH]c2cc(F)ccc12', 'HCI-027', 1.24),
  ('CN(Cc1cnc2nc(N)nc(N)c2n1)c1ccc(C(=O)N[C@@H](CCC(=O)O)C(=O)O)cc1 [methotrexate]', 'HCI-027', 2.07),
  ('Cc1cc(Nc2ncnc3ccc(NC4=NC(C)(C)CO4)cc23)ccc1Oc1ccn2ncnc2c1', 'HCI-027', 2.4),
  ('CCN(c1cc(C#CCN2CCOCC2)cc(C(=O)NCc2c(C)cc(C)[nH]c2=O)c1C)[C@H]1CC[C@H](N(C)CCOC)CC1', 'HCI-027', 2.06),
  ('C=CCn1c(=O)c2cnc(Nc3ccc(N4CCN(C)CC4)cc3)nc2n1-c1cccc(C(C)(C)O)n1', 'HCI-027', 1.72);

====

tested on: HCI-003.E2 (organoid from an ER-positive breast cancer xenograft); experiment: CTG-3D luminescence at 96 h relative to day-0 seeding control (ratio to day 0); higher = more growth / less cytotoxicity; PDxO 3D drug screen (set 2), 96 h, CTG-3D normalised to day-0 seeding control.; conditions: 10 µM
Measured CTG-3D luminescence at 96 h values are reported for all entries that follow.
outcome measure: CTG-3D luminescence at 96 h

INSERT INTO results (molecule, endpoint_value) VALUES
  ('CO[C@H]1C[C@@H]2CC[C@@H](C)[C@@](O)(O2)C(=O)C(=O)N2CCCC[C@H]2C(=O)O[C@H]([C@H](C)C[C@@H]2CC[C@@H](OCCO)[C@H](OC)C2)CC(=O)[C@H](C)/C=C(\C)[C@@H](O)[C@@H](OC)C(=O)[C@H](C)C[C@H](C)/C=C/C=C/C=C/1C [everolimus]', 0.03),
  ('CCOc1ccn(-c2ccc(F)cc2)c(=O)c1C(=O)Nc1ccc(Oc2ccnc(N)c2Cl)c(F)c1 [ASLAN002]', 1.97),
  ('Nc1cc(C(F)(F)F)c(-c2cc(N3CCOCC3)nc(N3CCOCC3)n2)cn1 [buparlisib]', 0.037),
  ('CS(=O)(=O)CCNCc1ccc(-c2ccc3ncnc(Nc4ccc(OCc5cccc(F)c5)c(Cl)c4)c3c2)o1 [lapatinib]', 0.0655),
  ('CC(=O)c1c(C)c2cnc(Nc3ccc(N4CCNCC4)cn3)nc2n(C2CCCC2)c1=O [palbociclib]', 1.92),
  ('CO[C@H]1C[C@@H]2CC[C@@H](C)[C@@](O)(O2)C(=O)C(=O)N2CCCC[C@H]2C(=O)O[C@H]([C@H](C)C[C@@H]2CC[C@@H](O)[C@H](OC)C2)CC(=O)[C@H](C)/C=C(\C)[C@@H](O)[C@@H](OC)C(=O)[C@H](C)C[C@H](C)/C=C/C=C/C=C/1C [rapamycin]', 0.994),
  ('Cc1c(CN2CCN(C(=O)[C@H](C)O)CC2)sc2c(N3CCOCC3)nc(-c3cnc(N)nc3)nc12 [apitolisib]', 0.0361),
  ('CC(C)n1nc(-c2ccc3oc(N)nc3c2)c2c(N)ncnc21 [sapanisertib]', 0.0196),
  ('CC(=O)O[C@@]12CO[C@@H]1C[C@H](O)[C@@]1(C)C(=O)[C@H](O)C3=C(C)[C@@H](OC(=O)[C@H](O)[C@@H](NC(=O)OC(C)(C)C)c4ccccc4)C[C@@](O)([C@@H](OC(=O)c4ccccc4)[C@H]21)C3(C)C [docetaxel]', 0.261);

====

test system: HCI-010 (organoid from a breast cancer xenograft); test: CTG-3D luminescence at 96 h relative to day-0 seeding control (ratio to day 0); higher = more growth / less cytotoxicity; PDxO 3D drug screen (set 2), 96 h, CTG-3D normalised to day-0 seeding control.; conditions: 625 fM; days in culture: 164
outcome measure: CTG-3D luminescence at 96 h

INSERT INTO assay_data (chemical_smiles, endpoint_value) VALUES
  ('Cc1c(CN2CCN(C(=O)[C@H](C)O)CC2)sc2c(N3CCOCC3)nc(-c3cnc(N)nc3)nc12', 1.33),
  ('CS(=O)(=O)CCNCc1ccc(-c2ccc3ncnc(Nc4ccc(OCc5cccc(F)c5)c(Cl)c4)c3c2)o1', 1.63),
  ('Nc1cc(C(F)(F)F)c(-c2cc(N3CCOCC3)nc(N3CCOCC3)n2)cn1', 1.37),
  ('CC(C)n1nc(-c2ccc3oc(N)nc3c2)c2c(N)ncnc21', 1.37),
  ('C[C@@H](Nc1cc(F)cc(F)c1)c1cc(C(=O)N(C)C)cc2c(=O)cc(N3CCOCC3)oc12', 1.52);

====

Measured CTG-3D luminescence at 96 h values are reported for all entries that follow.
tested on: HCI-005.E2 (organoid from a breast cancer xenograft with a HER2-positive history); assay: CTG-3D luminescence at 96 h relative to day-0 seeding control (ratio to day 0); higher = more growth / less cytotoxicity; PDxO 3D drug screen, 96 h, CTG-3D normalised to day-0 seeding control.; settings: 12.5 pM
outcome measure: CTG-3D luminescence at 96 h

INSERT INTO measurements (chemical_smiles, outcome_measure, endpoint_value) VALUES
  ('NC(=O)Nc1cc(-c2cccc(F)c2)sc1C(=O)N[C@H]1CCCNC1', 'CTG-3D luminescence at 96 h', 1.82),
  ('C[C@@H]1COCCN1c1cc(C2([S@](C)(=N)=O)CC2)nc(-c2cc[nH]c3nccc2-3)n1', 'CTG-3D luminescence at 96 h', 1.83),
  ('CCN1CCN(Cc2ccc(Nc3ncc(F)c(-c4cc(F)c5nc(C)n(C(C)C)c5c4)n3)nc2)CC1', 'CTG-3D luminescence at 96 h', 1.99),
  ('COc1cccc2c1C(=O)c1c(O)c3c(c(O)c1C2=O)C[C@@](O)(C(=O)CO)C[C@@H]3O[C@H]1C[C@H](N)[C@H](O)[C@H](C)O1', 'CTG-3D luminescence at 96 h', 1.5);
